Target: human recombinant aldose reductase (HRAR) (Homo sapiens)
Construct: purchased Wako Chemicals (Osaka, Japan)
Assay: Enzyme kinetics of HRAR inhibition (Lineweaver-Burk and Dixon plots)
Format: biochemical
Conditions: Lineweaver-Burk plot
outcome-measure: HRAR Mode of Inhibition

Recorded results for 6 compounds are shown here.
Input line: Form field: reported HRAR Mode of Inhibition of CC(C)=CCC[C@](C)(O)[C@H]1CC[C@]2(C)[C@@H]1[C@H](O)C[C@@H]1[C@@]3(C)CC[C@H](O)C(C)(C)[C@@H]3[C@@H](O)C[C@]12C [Protopanaxatriol]
Output line: Competitive type

Input line: Please give the measured HRAR Mode of Inhibition for this compound: CC(C)=CCC[C@](C)(O)[C@H]1CC[C@]2(C)[C@@H]1[C@H](O)C[C@@H]1[C@@]3(C)CC[C@H](O[C@@H]4O[C@H](CO)[C@@H](O)[C@H](O)[C@H]4O)C(C)(C)[C@@H]3CC[C@]12C [Ginsenoside Rh2]
Output line: Mixed type

Input line: Sample CC(C)=CCCC(C)(O)C1CCC2(C)C1C(O)CC1C3(C)CCC(OC4OC(CO)C(O)C(O)C4OC4OC(CO)C(O)C(O)C4O)C(C)(C)C3CCC12C [(20R) ginsenoside Rg3] — what was its HRAR Mode of Inhibition?
Output line: Mixed type

Input line: Param item = CC(C)=CCC[C@](C)(O[C@@H]1O[C@H](CO)[C@@H](O)[C@H](O)[C@H]1O)C1CC[C@]2(C)[C@@H]1[C@H](O)CC1[C@@]3(C)CC[C@H](O)C(C)(C)C3CC[C@]12C (some centres unmarked) [Compound K] ; retrieve measured HRAR Mode of Inhibition.
Output line: Competitive type

Input line: What HRAR Mode of Inhibition value was documented for this compound, CC(C)=CCC[C@](C)(O)C1CC[C@]2(C)[C@@H]1[C@H](O)CC1[C@@]3(C)CC[C@H](O)C(C)(C)C3CC[C@]12C (some centres unmarked) [Protopanaxadiol] ?
Output line: Competitive type

Input line: Would you kindly share the measured HRAR Mode of Inhibition for CC(C)=CCC[C@](C)(O)[C@H]1CC[C@]2(C)[C@@H]1[C@H](O)C[C@@H]1[C@@]3(C)CC[C@H](O)C(C)(C)[C@@H]3[C@@H](O[C@@H]3O[C@H](CO)[C@@H](O)[C@H](O)[C@H]3O)C[C@]12C [Ginsenoside Rh1] ?
Output line: Mixed type

Let's switch to this compound now.
Input line: Request the reported HRAR Mode of Inhibition associated with CC(C)=CCC[C@](C)(O)C1CC[C@]2(C)[C@@H]1[C@H](O)CC1[C@@]3(C)CC[C@H](O[C@@H]4O[C@H](CO)[C@@H](O)[C@H](O)[C@H]4O[C@@H]4O[C@H](CO)[C@@H](O)[C@H](O)[C@H]4O)C(C)(C)C3CC[C@]12C (stereo partly drawn) [(20S) ginsenoside Rg3]
Output line: Competitive type
